- Test system: 857933-349-R-J2-PDC complex spheroid viability;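 note: spheroids exposed to compounds for seven days before readout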
- assay-name: Anticancer human tumor 857933-349-R-J2-PDC patient-derived colon adenocarcinoma cell line growth inhibition [POLQ]
- test-settings: second compound 3.16 µM; first compound 10 µM; hits give low values
measured-attribute: viability, T/C (%)
Just the number in %, nothing appended.

INSERT INTO results (molecule, target_of_assay, measured_attribute, scale_unit, measured) VALUES
  ('O=C(Nc1ccc(O)c(NS(=O)(=O)c2ccc(F)cc2)c1)c1ccc(-c2ccccc2)cc1 + Nc1ccc(C#CCN(C(=O)Cc2ncc(C(F)(F)F)cc2C(F)(F)F)c2ccc(F)cc2)nn1', '857933-349-R-J2-PDC complex spheroid viability', 'viability, T/C', '%', 99.7),
  ('CC(C)n1c(=O)n(C)c2cnc3cc(F)c(-c4ccc(OCCCN5CCCCC5)nc4)cc3c21 + Cc1cccc(N(C)C(=O)C2C(O)CCN2c2nc(C)cc(C(F)(F)F)c2C#N)c1', '857933-349-R-J2-PDC complex spheroid viability', 'viability, T/C', '%', 75),
  ('Nc1ccn(C2OC(CO)C(O)C2(F)F)c(=O)n1 (stereo not given) + COC1C(OC(N)=O)C(O)C(Oc2ccc3c(O)c(NC(=O)c4ccc(O)c(CC=C(C)C)c4)c(=O)oc3c2C)OC1(C)C', '857933-349-R-J2-PDC complex spheroid viability', 'viability, T/C', '%', 11.8),
  ('COc1cc(C2c3cc4c(cc3C(OC3OC5COC(C)OC5C(O)C3O)C3COC(=O)C23)OCO4)cc(OC)c1O (stereo not given) + Cc1cccc(N(C)C(=O)C2C(O)CCN2c2nc(C)cc(C(F)(F)F)c2C#N)c1', '857933-349-R-J2-PDC complex spheroid viability', 'viability, T/C', '%', 33.4);

Note: attention shifts to another entry.
// field: viability, T/C; key: COc1cc2cc(C(=O)CCC(=O)O)sc2cc1OC + Nc1ccc(C#CCN(C(=O)Cc2ncc(C(F)(F)F)cc2C(F)(F)F)c2ccc(F)cc2)nn1 ; value = 103
